Test system: SR leukemia
method_notes: NCI-60 one-dose screen, 48 h (100 = growth as untreated, 0 = no growth, -100 = all killed)
setup_conditions: 10 µM unless noted
Compounds without any hit were thinned out: in the full panel of roughly 83,000, 20% have a hit.
# note: boundary value 80% maps to Condition not met; growth below it maps to Condition met

Prompt: Strictly below 80%: is that where growth of Oc1c(I)cc(I)cc1CNCCCN(Cc1ccccn1)Cc1ccccn1 sits?
Response: Condition met

Prompt: Criterion: growth strictly below 80%. Is it met by N#Cc1c(-c2ccc(Cl)cc2)nc(NCCO)[nH]c1=O ?
Response: Condition not met

Prompt: For this compound, is growth lower than 80%? Cn1cc(-c2cc3ncnc(Nc4ccc(CC(=O)Nc5cc(C(C)(C)C)on5)cc4)c3s2)cn1
Response: Condition met

Prompt: growth strictly < 80% for this compound? c1ccc2c(c1)Nc1ccncc1S2
Response: Condition not met

Prompt: Is it true that growth reported for O=C(Nc1ccc(Cl)cc1F)c1ccccc1O is less than 80%?
Response: Condition met

Prompt: Below 80% on growth? Entry CCCCCCCNC(=O)CCCNc1ncnc2c1ncn2-c1cccc(C(C)O)c1 (stereo unspecified)
Response: Condition not met

---
Prompt: # check: growth < 80% for COc1cc(OCc2cccc(-c3ccc(C(O)c4nccs4)cc3)c2C)cc(OC)c1CNCCNC(C)=O (stereo unspecified)
Response: Condition not met

Prompt: Is growth of CS(=O)(=O)N(c1cc(-c2ccc3ncnc(Nc4ccc(F)c(Cl)c4)c3c2)cnc1Cl)S(C)(=O)=O strictly below 80%?
Response: Condition met

Prompt: Record Cc1nc2nc(SCC(=O)O)[nH]c2c(=O)[nH]1 : is its growth strictly below 80%?
Response: Condition not met

Prompt: Does c1ccc2cc(C[n+]3ccn(CCCCCCCCCCCCn4cc[n+](Cc5ccc6ccccc6c5)c4)c3)ccc2c1 have growth strictly under 80%?
Response: Condition met

Prompt: Decide: growth of COc1ccc(N)c(N)c1 strictly below 80%?
Response: Condition not met
